Test system: Felis catus
Test: Mean arterial pressure change was detected in anaesthetised cats on administration of the compound
Format: functional, Artery
measured_property: MAP (delta %)
Please reply with the bare figure in delta % and do not write the unit itself.

Examples from the recorded data:
COc1cc2c(cc1OC)C(=O)C(CC1CCN(Cc3ccccc3)CC1)C2 (configuration not stated): -12
COc1cc2c(cc1OC)C(=O)C(C(O)C1CC[N+](C)(Cc3ccccc3)CC1)C2 (configuration not stated): -22
C[N+]1(Cc2ccccc2)CCC(CCC(=O)c2ccc3c(c2)NCCCC3)CC1 (configuration not stated): -6
COc1cc2c(cc1OC)C(=O)C(CC1CC[N+](C)(Cc3ccccc3)CC1)C2 (configuration not stated): -22
CC1=C[C@H]2Cc3[nH]c(=O)ccc3[C@]3(C1)NCCC[C@H]23: -17
COc1ccc2c3c1OC1C[C@@H](O)C=C[C@@]31CC[N+](C)(C)C2 (some centres not stated): 16

*Q* # lookup: MAP of `O=C(CCC1CCN(Cc2ccccc2)CC1)c1ccc2c(c1)NCCCC2`
*A* -11

----------
Assay: Tested for water solubility of the compound
Assay type: ADME
Settings: read-out: S
Outcome: Fulfilled for solubility of at least 2000 µg/mL; Not fulfilled for anything lower.

# count of solved cases: 5
C[N+]1(Cc2ccccc2)CCC(CCC(=O)c2ccc3c(c2)CCO3)CC1 (centres undefined): Not fulfilled
C[N@+]1(Cc2ccccc2)CC[C@H](CCC(=O)c2ccc3c(c2)CCO3)CC1: Fulfilled
C[N+]1(Cc2ccccc2)CCC(CCC(=O)c2ccc3c(c2)OCCO3)CC1 (centres undefined): Not fulfilled
COc1cc2cc(C(=O)CCC3CC[N+](C)(Cc4ccccc4)CC3)n(C)c2cc1OC (centres undefined): Not fulfilled
C[N+]1(Cc2ccccc2)CCC(CCC(=O)c2ccc3c(c2)CCCCO3)CC1 (centres undefined): Fulfilled

*Q* Could you tell me if the measured solubility of COc1ccc2cc(C(=O)CCC3CC[N+](C)(Cc4ccccc4)CC3)ccc2c1 (centres undefined) reaches 2000 µg/mL or more?
*A* Not fulfilled

*Q* Could you tell me if the measured solubility of C[N+]1(Cc2ccccc2)CCC(CCC(=O)c2ccc3c(c2)OCO3)CC1 (centres undefined) reaches 2000 µg/mL or more?
*A* Not fulfilled

----------
Molecular target: Acetylcholinesterase (Homo sapiens, UniProt P22303)
Sequence (P22303 whole entry): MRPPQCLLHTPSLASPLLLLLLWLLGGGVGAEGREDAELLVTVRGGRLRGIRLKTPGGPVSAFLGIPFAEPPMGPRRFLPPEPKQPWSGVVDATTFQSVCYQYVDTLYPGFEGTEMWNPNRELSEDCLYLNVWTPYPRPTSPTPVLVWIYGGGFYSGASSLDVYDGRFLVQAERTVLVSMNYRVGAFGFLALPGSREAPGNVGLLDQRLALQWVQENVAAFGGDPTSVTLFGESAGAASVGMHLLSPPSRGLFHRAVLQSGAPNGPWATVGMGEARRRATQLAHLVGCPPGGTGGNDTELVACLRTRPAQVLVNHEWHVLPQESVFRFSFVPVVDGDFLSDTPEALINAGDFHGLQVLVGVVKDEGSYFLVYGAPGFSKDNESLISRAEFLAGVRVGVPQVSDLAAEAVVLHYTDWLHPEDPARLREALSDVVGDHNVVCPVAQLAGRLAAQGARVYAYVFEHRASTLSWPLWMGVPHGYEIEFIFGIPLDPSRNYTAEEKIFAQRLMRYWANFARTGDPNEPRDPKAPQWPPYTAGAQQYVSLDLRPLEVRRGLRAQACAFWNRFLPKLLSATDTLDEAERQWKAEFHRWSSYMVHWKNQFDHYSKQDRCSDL
Recorded log10(EC50) by entry
Note the log scale: values are log10 of EC50 expressed in nM.

COc1cc2cc(C(=O)CCC3CC[N+](C)(Cc4ccccc4)CC3)sc2cc1OC (centres undefined): 1.28
COc1cc2c(cc1OC)C(=O)C(CC1CC[N+](C)(Cc3ccccc3)CC1)C2 (centres undefined): 2.00
COc1cc2c(cc1OC)C(=O)C(C(O)C1CC[N+](Cc3ccccc3)(Cc3ccccc3)CC1)C2 (centres undefined): 4.64
COc1cc2c(cc1OC)C(=O)[C@@H]([C@@H](O)C1CC[N+](C)(Cc3ccccc3)CC1)C2 (some centres undefined): 3.43
C[N+]1(Cc2ccccc2)CCC(CCC(=O)c2ccc3c(c2)NCCCC3)CC1 (centres undefined): 2.52
COc1ccc2c3c1OC1C[C@@H](O)C=C[C@@]31CC[N+](C)(C)C2 (some centres undefined): 2.80

*Q* What is its log10(EC50) for Acetylcholinesterase (Homo sapiens, UniProt P22303)? Entry: CC1=C[C@H]2Cc3[nH]c(=O)ccc3[C@]3(C1)NCCC[C@H]23 [HUPERZINE B]
*A* 1.28

*Q* What is its log10(EC50) for Acetylcholinesterase (Homo sapiens, UniProt P22303)? Entry: C[N+]1(Cc2ccccc2)CCC(CCC(=O)c2ccc3c(c2)OCO3)CC1 (centres undefined)
*A* 3.23

*Q* What is its log10(EC50) for Acetylcholinesterase (Homo sapiens, UniProt P22303)? Entry: COc1ccc2cc(C(=O)CCC3CC[N+](C)(Cc4ccccc4)CC3)ccc2c1 (centres undefined)
*A* 2.72

All values here come from ChEMBL document CHEMBL1135324.
